Listing of recorded pIC50 by entry.
Target: glucosylceramide synthase (GCS) (Homo sapiens (Human), UniProt Q16739)
Sequence (Q16739 whole entry): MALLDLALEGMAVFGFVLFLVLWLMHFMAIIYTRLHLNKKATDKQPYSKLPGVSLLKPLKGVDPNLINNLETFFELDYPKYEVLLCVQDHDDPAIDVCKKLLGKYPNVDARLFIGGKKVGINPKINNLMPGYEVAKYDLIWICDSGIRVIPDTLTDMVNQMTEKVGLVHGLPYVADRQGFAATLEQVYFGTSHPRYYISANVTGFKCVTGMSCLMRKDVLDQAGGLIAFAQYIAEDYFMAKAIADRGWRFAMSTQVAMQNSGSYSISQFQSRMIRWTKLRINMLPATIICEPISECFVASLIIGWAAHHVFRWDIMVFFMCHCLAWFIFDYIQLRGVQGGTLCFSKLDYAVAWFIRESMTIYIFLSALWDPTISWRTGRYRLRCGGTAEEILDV
Test: Evaluation of inhibitory activities against GCS (A549 cell lysate, NBD C6-ceramide, HPLC)
Format: biochemical
pIC50: −log10 of the molar value.

CPD SMILES	pIC50
CC(C)Oc1ccc(-c2ccc3c(c2)CC(C)(C)[C@H]3NC(=O)O[C@@H]2CN3CCC2CC3)c(Cl)c1	9.72
CCOc1cc2c(cc1-c1ccc(C(C)C)cc1)CC(C)(C)[C@H]2NC(=O)O[C@@H]1CN2CCC1CC2	8.64
CC(C)Oc1ccc(-c2cc3c(cc2F)[C@H](NC(=O)O[C@@H]2CN4CCC2CC4)C(C)(C)CC3)cc1F	9.47
CC(C)Cc1ccc(-c2ccc3c(c2)CCC(C)(C)[C@H]3NC(=O)O[C@@H]2CN3CCC2CC3)cc1	8.30
CCOc1ccc(-c2cc3c(cc2C)[C@H](NC(=O)O[C@@H]2CN4CCC2CC4)C(C)(C)C3)cc1	9.51
COc1ccc(-c2cc3c(cc2F)[C@H](NC(=O)O[C@@H]2CN4CCC2CC4)C(C)(C)C3)cc1F	9.21
CCCc1cccc(-c2cc3c(cc2F)[C@H](NC(=O)O[C@@H]2CN4CCC2CC4)C(C)(C)CC3)c1	9.08
CC(C)COc1ccc(-c2cc3c(cc2F)[C@H](NC(=O)O[C@@H]2CN4CCC2CC4)C(C)(C)CC3)cc1	9.72
CCCCOc1ccc(-c2cc3c(cc2C)[C@H](NC(=O)O[C@@H]2CN4CCC2CC4)C(C)(C)C3)cc1	9.62
CC(C)Oc1c(F)cc(-c2cc3c(cc2F)[C@H](NC(=O)O[C@@H]2CN4CCC2CC4)C(C)(C)C3)cc1F	8.97
CC(C)Oc1cc(-c2cc3c(cc2F)[C@H](NC(=O)O[C@@H]2CN4CCC2CC4)C(C)(C)C3)ccc1Cl	8.15
CC(C)(C)Oc1ccc(-c2cc3c(cc2F)[C@H](NC(=O)O[C@@H]2CN4CCC2CC4)C(C)(C)C3)c(Cl)c1	9.72
CC(C)(C)Oc1ccc(-c2cc3c(cc2F)[C@H](NC(=O)O[C@@H]2CN4CCC2CC4)C(C)(C)C3)cc1	9.42
CC1(C)Cc2cc(-c3ccc(OCC4CC4)c(Cl)c3)c(F)cc2[C@@H]1NC(=O)O[C@@H]1CN2CCC1CC2	9.17

----------
Assay: Evaluation of blood-brain barrier (BBB) permeability through oral administration
Assay type: in vivo, mice
Settings: mouse, in vivo; mice, oral, dose 30 mg/kg, 4 hr; read-out: Mean drug concentrations in plasma at 4 hr
Listing of recorded concentration at 4 h by entry.

CPD SMILES	concentration at 4 h
CCOc1ccc(-c2ccc3c(c2)CC(C)(C)[C@H]3NC(=O)O[C@@H]2CN3CCC2CC3)c(Cl)c1	1850 ng/mL
CCCOc1c(C)cc(-c2ccc3c(c2)CC(C)(C)[C@H]3NC(=O)O[C@@H]2CN3CCC2CC3)cc1C	403 ng/mL
COc1cc(-c2ccc3c(c2)CC(C)(C)[C@H]3NC(=O)O[C@@H]2CN3CCC2CC3)ccc1OC(C)C	1080 ng/mL
CC(C)Oc1cccc(-c2ccc3c(c2)CCC(C)(C)[C@H]3NC(=O)O[C@@H]2CN3CCC2CC3)c1	852 ng/mL
CCCOc1c(C)cc(-c2cc3c(cc2F)[C@H](NC(=O)O[C@@H]2CN4CCC2CC4)C(C)(C)CC3)cc1C	510 ng/mL
CC(C)COc1ccc(-c2cc3c(cc2F)[C@H](NC(=O)O[C@@H]2CN4CCC2CC4)C(C)(C)C3)cc1	63.7 ng/mL
CC(C)Oc1ccc(-c2cc3c(cc2F)[C@H](NC(=O)O[C@@H]2CN4CCC2CC4)C(C)(C)C3)cc1Cl	719 ng/mL
